Measure: intrinsic clearance, human liver microsomes (mL/min/kg)

1) Cc1ccc(C)c2nc3c(cc12)CNCCO3: 23.7
2) [2H]c1nc(C)nc([2H])c1-c1cc(NC[C@@H](C)c2cccc3c(C(=O)NC)ccnc23)ncn1: 5.41
3) c1ccc(Cc2n[nH]c(CSc3ccccc3)n2)cc1: 89.2
4) O=C(CCc1ccc2c(c1)OCO2)Nc1nc2c(s1)CCC2: 97.4
5) CCOc1cc(-c2nnc(NC(=O)c3cccc(C(F)(F)F)c3)o2)cc(OCC)c1OCC: 7.61
6) CCc1nnc2n1CCN(C(=O)c1ccccc1Oc1cccnc1)C2: 4.83

----------
Below, each of the compounds is paired with its reported MDR1-MDCK efflux ratio value.
Measure: MDR1-MDCK efflux ratio

1) COc1cc2c(cc1OC)CN(C(=O)C1CCCN(C(=O)c3ccc(Cl)cc3)C1)CC2 (stereo unspecified): 10.1
2) Cc1ncsc1CNc1nnc(-c2ccncc2)o1: 3.75
3) Cc1nn(CCC#N)c(C)c1Oc1ccccc1O: 1.57
4) O=c1[nH]c2ccccc2n1C1CCN(Cc2nc(-c3ccsc3)no2)CC1: 3.73
5) CN(Cc1cccnc1)Cc1ccc(C#N)o1: 0.648
6) Cc1cc(OCCCS(C)(=O)=O)cc(C)c1-c1cccc(COc2ccc3c(c2)OC[C@@H]3CC(=O)O)c1: 6.84

----------
Class (by MDR1-MDCK efflux ratio) -- bin A = under 0.7, bin B = from 0.7 up to 1, bin C = 1 and over

1. CC(C)(C)n1ncc(OCc2ccc(OCCOCCO)nc2)c(Cl)c1=O: bin C
2. O=C(c1ccc2c(c1)OCO2)N1CCC(c2n[nH]c(C3CC3)n2)CC1: bin C
3. O=C(O)c1ccc(Nc2ncc3c(n2)-c2ccc(Cl)cc2C(c2c(F)cccc2F)=NC3)cc1: bin C
4. CC(=O)NCC(=O)N1[C@@H]2CC[C@H]1c1ccc(Nc3ncc(C(F)(F)F)c(NC4CCC4)n3)cc12: bin C
5. CCc1cc(NCc2cccc(OCCOC)c2)ncn1: bin B
6. CCCN(CCC1=CCCCC1)C(=O)Cc1n[nH]c(=O)[nH]1: bin C
7. Cc1nn(C)c2ncc(CNc3ccon3)cc12: bin B
8. O[C@@H]1CCCC[C@H]1N1CCC(c2ccccc2)CC1: bin A
9. Nc1ccnc2ccc(Oc3ccccc3)cc12: bin A
10. CC(=O)Nc1ccc(Oc2ncnc3scc(-c4ccccc4)c23)cc1: bin B
11. N#CCSCC(=O)NC1CCCCCC1: bin B
12. CC1(C)CC(=O)C2=C(C1)NC(=O)CC2c1ccc(Br)cc1 (stereo not given): bin C
13. Cc1ccc(Nc2ccnc(Nc3ccc(C)cc3)n2)cc1: bin A
14. O=C(c1ccccc1-c1ncc(-c2ccccc2F)o1)N1CCC1: bin A
15. CC(C)NC(=O)c1cc(-c2ccccc2)n(-c2ccccn2)n1: bin B
16. Cc1ccc(Cn2ccn(-c3ccc(F)c(F)c3)c(=O)c2=O)cc1: bin A
17. CCCNC(=O)c1ccnc(N(C)C)c1: bin A
18. O=C(NC1CCCC1)C(=O)c1ccc2c(c1)CCC2: bin A
19. Cc1cccn(Cc2ccccc2F)c1=O: bin A
20. Cc1nnc(-c2ccccc2-c2ccc(O)cc2)s1: bin C
21. Cn1cnnc1-c1cccc(NS(=O)(=O)c2cc3c(cc2Cl)OCCO3)c1: bin C
22. Cc1cccc(N2CCN(CCCCNC(=O)c3c(F)cccc3F)CC2)c1: bin C
23. Cc1ccc(NC(=O)OCC(F)(F)F)cn1: bin A
24. Cn1ccc(CSc2n[nH]c(-c3cc(F)cc(F)c3)n2)n1: bin A
